# system.under.test: T1, HLA-A2 on T2 cells (human)
# T1 construct: No peptide added; also called T2 cells alone; T2 cells without peptide
# procedure.details: T2 cells pulsed with peptide, staining with anti-HLA-A2 BB7.2
metric.name: binding result

Sample AMFPNAPYL (also called A1) [WT1126-Arg1Ala peptide] ; binding result observed: binds

The value of binding result measured for the binder RMFPNAPAL (also called A8) [WT1126-Tyr8Ala peptide] turned out to be binds

The binder listed as RMFPNAPYL (also called WT1 peptide) [WT1126 peptide (RMFPNAPYL) by itself] shows binding result equal to binds

Data point: RMFPAAPYL (also called A5) [WT1126-Asn5Ala peptide] ; binding result = binds

Where do these numbers come from? They come from patent US20160152725A1.
